Data origin, for the record: patent US20240270821A1

- Assay System: hGLP-1R (Homo sapiens)
- Sequence (P43220 24-463): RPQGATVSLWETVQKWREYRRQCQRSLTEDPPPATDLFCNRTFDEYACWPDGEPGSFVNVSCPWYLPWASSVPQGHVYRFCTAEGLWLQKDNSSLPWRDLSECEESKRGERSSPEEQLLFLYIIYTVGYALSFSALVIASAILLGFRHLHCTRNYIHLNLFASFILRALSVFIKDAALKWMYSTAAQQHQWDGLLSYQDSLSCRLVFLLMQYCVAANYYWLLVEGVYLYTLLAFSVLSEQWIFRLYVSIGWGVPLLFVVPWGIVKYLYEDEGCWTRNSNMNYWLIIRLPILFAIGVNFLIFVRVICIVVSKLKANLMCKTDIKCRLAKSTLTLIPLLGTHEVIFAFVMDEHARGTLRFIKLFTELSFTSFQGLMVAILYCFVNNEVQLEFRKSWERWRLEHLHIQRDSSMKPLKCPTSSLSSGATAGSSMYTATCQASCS
- Sequence (P32121 whole entry partner): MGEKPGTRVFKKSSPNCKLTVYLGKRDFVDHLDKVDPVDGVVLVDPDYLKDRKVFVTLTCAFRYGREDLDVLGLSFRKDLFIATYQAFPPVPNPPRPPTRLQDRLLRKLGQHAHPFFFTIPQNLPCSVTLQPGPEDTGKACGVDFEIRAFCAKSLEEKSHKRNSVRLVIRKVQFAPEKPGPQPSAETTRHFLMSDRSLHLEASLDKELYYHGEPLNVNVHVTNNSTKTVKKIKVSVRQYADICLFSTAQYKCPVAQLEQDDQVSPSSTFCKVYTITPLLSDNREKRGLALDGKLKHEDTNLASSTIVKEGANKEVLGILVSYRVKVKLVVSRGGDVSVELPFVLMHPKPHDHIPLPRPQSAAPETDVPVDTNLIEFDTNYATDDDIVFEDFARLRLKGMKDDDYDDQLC
- Test Name: GLP-1R CHO cell β-arrestin recruitment assay;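 further: luminescence read after 90 min peptide exposure at 37 °C and a further 60 min with detection reagent at room temperature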
- Format: cell-based
- Parameters: host or cells: CHO-K1 (PathHunter, assay-ready frozen cells)
- Measurement Parameters: CHO-K1 PathHunter, β-arrestin-2, 0.1% casein; read-out: hGLP1R β-arrestin Rel EC50
Starred links: 1 amine or outer side, 2 acyl side, 3 side chain; linkers in the order of their positions; H or OH if unused. Non-standard residues stand in square brackets, D forms with d. Groups on a side chain read outwards from the residue. *: point of attachment. C20 diacid = O=C(O)CCCCCCCCCCCCCCCCCCC(=O)*; αMePhe(2-F) = C[C@](N)(Cc1ccccc1F)C(=O)O; γGlu = O=C(O)[C@H](CCC(=O)[*:2])N[*:1]; εLys = N[C@@H](CCCCN[*:1])C(=O)[*:2]; NMeY = CN[C@@H](Cc1ccc(O)cc1)C(=O)O; αMeF = C[C@](N)(Cc1ccccc1)C(=O)O; αMeL = CC(C)C[C@](C)(N)C(=O)O; Orn = NCCC[C@H](N)C(=O)O; AEEA = NCCOCCOCC(=O)O; Aib = CC(C)(N)C(=O)O
Quantity Measured: pEC50
Bear in mind: pEC50 is minus log10 of a mol/L concentration; give just that figure.

Worked cases, pEC50 given:
substance="H-Y[Aib]QGTFTSDYSI[αMeL]LDKIAAK([AEEA-AEEA-γGlu-C20 diacid])[Orn]FVQYLIAGGPSSGEPPPSEG-NH2 [Example 308]" quantity_measured=pEC50 readout_value=7.77
substance="H-Y[Aib]QGTFTSDYSI[αMeL]LDKQAAK([εLys-εLys-γGlu-C20 diacid])QFVEWLLA[Aib]GPSSGEPPPSEG-NH2 [Example 329]" quantity_measured=pEC50 readout_value=8.21

(Q) May I ask what pEC50 has been recorded for H-Y[Aib]QGTFTSDYSI[αMeL]LDKK([AEEA-AEEA-γGlu-C20 diacid])AA[Aib]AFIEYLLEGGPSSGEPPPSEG-NH2 [Example 294] ?
(A) 7.56

(Q) # query: pEC50 of entry H-H[Aib]QGT[αMePhe(2-F)]TSDYSILLDKK([AEEA-γGlu-C20 diacid])AA[Aib]AFIEYLIEAGPSSGEPPPSEG-NH2 [Example 298]
(A) 8.48

(Q) What does the data say about its pEC50? Entry: H-[NMeY][Aib]QGT[αMeF]TSDYSSLLDKIAAK([AEEA-AEEA-γGlu-C20 diacid])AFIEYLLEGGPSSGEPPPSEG-NH2 [Example 297]
(A) 7.22

(Q) Requested field: pEC50. Item: H-Y[Aib]QGTFTSDYSI[αMeL]LDKK([AEEA-γGlu-C20 diacid])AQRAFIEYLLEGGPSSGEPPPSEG-NH2 [Example 289]
(A) 8.22
